# MEASUREMENT_DESCRIPTION: Influence of humidity: water content of crystals after standing at controlled relative humidity
# Type: physicochemical
# CONDITION_SET: relative humidity 22% RH, 7 days, 25° C.
ENDPOINT_NAME: Water content (%)

Example entries begin here.
{"columns": ["COMPOUND", "Water content (%)"],
 "data": [
  ["CS(=O)(=O)Nc1cc2occ(NC=O)c(=O)c2cc1Oc1ccccc1 [T-614γ]", 0.28],
  ["CS(=O)(=O)Nc1cc2occ(NC=O)c(=O)c2cc1Oc1ccccc1 [T-614 hydrate]", 4.09]
]}

I. CS(=O)(=O)Nc1cc2occ(NC=O)c(=O)c2cc1Oc1ccccc1 [T-614β]
II. CS(=O)(=O)Nc1cc2occ(NC=O)c(=O)c2cc1Oc1ccccc1 [T-614α, reference compound]
Request: Form field 'greater Water content (%)' accepts I or II ; which applies? // return label of chosen record
Result: I
